Assay info: in vitro
Assay conditions: human, hela cells, % viability
Reported metric: viability at 28.5 h, 10 µM (%)
Give bare numbers, in %.

Record excerpt, results attached:
1) C#CCNC(=O)CC[C@H]1CNC(=O)[C@@H]2[C@@H](CCN2CC(C)(C)C)N1C : 95.1
2) O=C(COC(=O)c1ccc(Cl)c(Cl)c1)c1ccc(Oc2ccc([N+](=O)[O-])cc2)cc1 : 117
3) S=C1NCC(COc2ccc(Cl)cc2)O1 (centres unmarked) : 98.9
4) O=C(CSc1nnnn1C1CC1)Nc1ccc(CN2CCOCC2)cc1 : 99.2

Each molecule below has a reported value. Please supply its viability at 28.5 h, 10 µM.
1. Cc1cc(C)c2c(n1)nn1c(C)c(CCC(=O)O)c(C)nc21
2. CCOC(=O)CN(Cc1ccccc1)Cc1ccc(OC)cc1
3. Cc1c(C)n(Cc2ccco2)c2ncnc(NC(C)C(=O)O)c12 (centres unmarked)
4. CC(=O)Nc1ccc(-c2cncc(N3CCN(CCN4CCCC4)CC3)n2)cc1
5. O=C(O)C1(NCc2ccccc2Cl)CCCCC1

### Response
98.2
103
106
103
78.9

Each molecule below has a reported value. Please supply its viability at 28.5 h, 10 µM.
1. COc1cccc(CN2C(=O)COc3ccc(C(=O)c4cccs4)cc32)c1
2. COc1ccccc1C(=O)N1CCC(Cc2cccc(-c3cccs3)c2)(C(N)=O)CC1
3. OCCN(Cc1cccnc1)CC1(c2ccc(Cl)cc2)CC1
4. OCCNc1nccnc1-c1ccc2c(c1)OCO2
5. COc1cc(C=Cc2cc(C(=O)O)c3ccccc3n2)cc(Cl)c1OC(C)C

### Response
[96.1, 99.8, 101, 95, 93.7]
